Test system: Plasmodium falciparum
assay.text: Antimalarial activity against Plasmodium falciparum 3D7 infected in human erythrocytes after 72 hrs by spectrophotometric analysis
Assay type: functional, organism-based
conditions: 3D7, 72 h
pEC50: −log10 of the molar value.
quantity.name: pEC50

[[record]]
compound = "COc1ccc2[nH]c(C)c(CC(=O)N3CCN(CC4CCOC4)CC3c3ncc(-c4ccc5ccccc5c4)[nH]3)c2c1 (mixture of isomers)"
recorded_measurement = 5.44


---

System: Trypanosoma brucei
assay.text: Antitrypanosomal activity against Trypanosoma brucei Lister 427 bloodstream forms in presence of 10% FBS after 24 hrs by celltiter glo assay
Assay type: functional, organism-based
conditions: Lister 427, 24 h
The following molecules are listed with their measured EC50 values.
quantity.name: EC50 (nM)

[[record]]
molecule = "CCC(=O)CCC(=O)N1CCN(C(=O)Cc2c(C)[nH]c3ccc(OC)cc23)C(c2ncc(-c3ccc4ccccc4c3)[nH]2)C1 (centres undefined)"
unit_name = "nM"
recorded_measurement = 492

[[record]]
molecule = "CCC(=O)CCCN1CCN(C(=O)Oc2ccccc2)C(c2ncc(-c3ccc4ccccc4c3)[nH]2)C1 (centres undefined)"
unit_name = "nM"
recorded_measurement = 1220

[[record]]
molecule = "CCC(=O)CCCN1CCN(C(=O)Cc2c(C)[nH]c3ccc(OC)cc23)C(c2nnc(-c3ccc4ccccc4c3)o2)C1 (centres undefined)"
unit_name = "nM"
recorded_measurement = 304

[[record]]
molecule = "CNC(=O)CCCN1CCN(C(=O)Cc2c(C)[nH]c3ccc(OC)cc23)C(c2ncc(-c3ccc4ccccc4c3)[nH]2)C1 (centres undefined)"
unit_name = "nM"
recorded_measurement = 148


---

experimental.system: Histone deacetylase 1 (Homo sapiens, UniProt Q13547)
Sequence (Q13547 whole entry): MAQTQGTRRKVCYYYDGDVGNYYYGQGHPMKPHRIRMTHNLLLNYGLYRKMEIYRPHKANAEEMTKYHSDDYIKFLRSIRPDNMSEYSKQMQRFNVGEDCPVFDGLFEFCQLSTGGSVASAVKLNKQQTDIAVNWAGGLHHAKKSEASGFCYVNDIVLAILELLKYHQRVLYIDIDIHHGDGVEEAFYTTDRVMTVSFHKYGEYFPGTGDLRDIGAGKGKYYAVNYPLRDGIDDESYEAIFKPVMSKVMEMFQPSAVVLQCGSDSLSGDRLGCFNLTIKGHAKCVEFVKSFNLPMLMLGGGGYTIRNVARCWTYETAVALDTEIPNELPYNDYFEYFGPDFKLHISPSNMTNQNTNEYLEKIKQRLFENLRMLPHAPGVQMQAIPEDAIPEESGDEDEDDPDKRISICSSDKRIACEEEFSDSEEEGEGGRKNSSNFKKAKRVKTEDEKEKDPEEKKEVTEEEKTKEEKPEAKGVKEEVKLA
quantity.name: IC50

[[record]]
molecule = "CCC(=O)CCCN1CCN(C(=O)Cc2c[nH]c3ccccc23)C(c2ncc(-c3ccc4ccccc4c3)[nH]2)C1 (stereo unspecified)"
quantity_name = "IC50"
recorded_measurement = "> 25 µM"

